Origin of values: PubChem BioAssay AID696

Target: Alkaline phosphatase, placental type (Homo sapiens)
Experiment: PLAP enzyme activators, biochemical, luminescence, HTS (AID 696)
Details: purified PLAP enzyme, luminescent substrate read-out

{"compound": "CCCCOC(=O)C(C)Nc1n[nH]c(=S)[nH]c1=O (stereo unspecified)", "system_name": "Alkaline phosphatase, placental type (Homo sapiens)", "EC50": "21.4 µM"}
{"compound": "O=C(NC1(C(F)(F)F)Oc2ccc(Cl)cc2O1)N1CCC2(CC1)OCCO2 (stereo unspecified)", "system_name": "Alkaline phosphatase, placental type (Homo sapiens)", "EC50": "61.9 µM"}
{"compound": "Clc1ccc(-c2cc(CSc3cccc(Cl)c3)on2)cc1", "system_name": "Alkaline phosphatase, placental type (Homo sapiens)", "EC50": "69.4 µM"}
{"compound": "O=C(C[n+]1cc2ccccc2c2ccccc21)c1ccccc1", "system_name": "Alkaline phosphatase, placental type (Homo sapiens)", "EC50": "94.1 µM"}
{"compound": "O=C(Cn1c(=O)oc2cc(S(=O)(=O)N3CCCC3)ccc21)NCc1ccc(F)cc1", "system_name": "Alkaline phosphatase, placental type (Homo sapiens)", "EC50": "0.457 µM"}
{"compound": "CC(C)n1c(-c2ccc(N(C)C)cc2)nc2ccccc21", "system_name": "Alkaline phosphatase, placental type (Homo sapiens)", "EC50": "8.52 µM"}
{"compound": "COC(=O)c1cn[nH]c1NC(=S)Nc1ccccc1C", "system_name": "Alkaline phosphatase, placental type (Homo sapiens)", "EC50": "21.1 µM"}
{"compound": "CCCCN1CCc2c1nc1ccc(Br)cc1c2N", "system_name": "Alkaline phosphatase, placental type (Homo sapiens)", "EC50": "77.2 µM"}
{"compound": "COc1ccc(-c2cc(NCc3ccccn3)n3ncnc3n2)cc1", "system_name": "Alkaline phosphatase, placental type (Homo sapiens)", "EC50": "65.9 µM"}
{"compound": "N#CC(c1ccc(F)cc1)c1ccc(C(=O)c2ccc(F)cc2)cc1 (stereo unspecified)", "system_name": "Alkaline phosphatase, placental type (Homo sapiens)", "EC50": "23.1 µM"}
{"compound": "CCOC(=O)c1c(C)[nH]c(C(=O)CSc2nnc(CC(C)c3ccccc3)o2)c1C (stereo unspecified)", "system_name": "Alkaline phosphatase, placental type (Homo sapiens)", "EC50": "78.5 µM"}
